test system: Plasmodium falciparum; test: Inhibition of Plasmodium falciparum protein farnesyltransferase at 50 nM by scintillation proximity assay
Assign inhibition to each entry below.
Entry rule: numbers only, all in %.

Fill in the recorded inhibition for this molecule, with Plasmodium falciparum as test system: COC(=O)N1CCC(CN(C2Cc3cc(C#N)ccc3N(C(C)c3cnc[nH]3)C2)S(=O)(=O)c2ccccn2)CC1 (centres undefined)
96

Field: inhibition (Plasmodium falciparum). Entry: Cn1cc(S(=O)(=O)N(Cc2ccccc2F)C2Cc3cc(C#N)ccc3N(Cc3cncn3C)C2)cn1 (centres undefined)
94

Reported inhibition for Plasmodium falciparum, given Cn1cncc1CN1CC(N(CC(=O)NC(C)(C)C)S(=O)(=O)c2ccc(F)cc2)Cc2cc(C#N)ccc21 (centres undefined) ?
71

So what inhibition did Cn1cnc(S(=O)(=O)N(Cc2ncoc2-c2ccccc2)C2Cc3cc(C#N)ccc3N(Cc3cncn3C)C2)c1 (centres undefined) get with Plasmodium falciparum?
92

---

system: Plasmodium falciparum; assay: Inhibition of Plasmodium falciparum protein farnesyltransferase at 5 nM by scintillation proximity assay
REPORTED_PROPERTY: inhibition (%)
Give just the number in %; leave the unit off.

Sample Cn1cncc1CN1CC(N(Cc2cccc(-n3cncn3)c2)S(=O)(=O)c2ccccn2)Cc2cc(C#N)ccc21 (centres undefined) — what was its inhibition?
11

So what's the measured inhibition for this one? CCS(=O)(=O)c1ccc(CN(C2Cc3cc(C#N)ccc3N(Cc3cncn3C)C2)S(=O)(=O)c2cn(C)cn2)cc1 (centres undefined)
100

Reported inhibition, molecule COCCCN(C1Cc2cc(C#N)ccc2N(Cc2cncn2C)C1)S(=O)(=O)c1cn(C)cn1 (centres undefined) : ____
92

// inhibition lookup, key: COC(=O)N1CCC(CN(C2Cc3cc(C#N)ccc3N(Cc3cncn3C)C2)S(=O)(=O)c2cc(C)cs2)CC1 (centres undefined)
86

---

tested on: Plasmodium falciparum; experiment: Inhibition of Plasmodium falciparum protein farnesyltransferase at 5 nM by scintillation proximity assay
Record form. Attribute: inhibition. Fill in for each entry.
Field format: number, assumed %, no unit text.

Report inhibition for Cn1cncc1CN1CC(N(Cc2ccccc2F)C(=O)c2cnns2)Cc2cc(C#N)ccc21 (configuration not stated) please.
66

Given the entry Cn1cncc1CN1CC(N(Cc2ccc(S(C)(=O)=O)cc2)S(=O)(=O)c2ccccn2)Cc2cc(C#N)ccc21 (configuration not stated) , report its measured inhibition.
84

What does the record list as inhibition for Cn1cncc1CN1CC(N(Cc2cccc3nsnc23)S(=O)(=O)c2ccccn2)Cc2cc(C#N)ccc21 (configuration not stated) ?
31

Recorded inhibition of Cn1cncc1CN1CC(N(CCOc2cccc3c2OCCO3)S(=O)(=O)c2ccccn2)Cc2cc(C#N)ccc21 (configuration not stated) , please.
41

Look up inhibition for this compound: COC(=O)N1CCC(CN(C2Cc3cc(C#N)ccc3N(Cc3cncn3C)C2)S(C)(=O)=O)CC1 (configuration not stated)
5

Requested read-out: inhibition. Entry: Cn1cncc1CN1CC(N(CC2CCNCC2)S(=O)(=O)c2ccccn2)Cc2cc(C#N)ccc21 (configuration not stated)
6

Bench note: what inhibition did Cn1cncc1CN1CC(N(Cc2cc3nsnc3cc2Cl)S(=O)(=O)c2ccccn2)Cc2cc(C#N)ccc21 (configuration not stated) show?
4

Requested read-out: inhibition. Entry: COC(=O)N1CCC(CN(C2Cc3cc(C#N)ccc3N(Cc3cncn3C)C2)S(=O)(=O)c2cn(C)c(C)n2)CC1 (configuration not stated)
96

So what's the measured inhibition for this one? Cn1cncc1CN1CC(N(CC2CCN(C(=O)c3ccc(Cl)cc3)CC2)S(=O)(=O)c2ccccn2)Cc2cc(C#N)ccc21 (configuration not stated)
0

Requested read-out: inhibition. Entry: Cn1cnc(S(=O)(=O)N(Cc2ccc(S(=O)(=O)c3ccccc3)cc2)C2Cc3cc(C#N)ccc3N(Cc3cncn3C)C2)c1 (configuration not stated)
90

Report inhibition for COC(=O)N1CCC(CN(C2Cc3cc(C#N)ccc3N(Cc3cncn3C)C2)S(=O)(=O)c2ncn(C)c2C)CC1 (configuration not stated) please.
97

Which measured inhibition value corresponds to COC(=O)N1CCC(CN(C2Cc3cc(C#N)ccc3N(Cc3cncn3C)C2)S(=O)(=O)c2ccc3oc(=O)ccc3c2)CC1 (configuration not stated) ?
21

What value of inhibition has been reported for the following compound? CC(C)OC(=O)N1CCC(CN(C2Cc3cc(C#N)ccc3N(Cc3cncn3C)C2)S(=O)(=O)c2ccccn2)CC1 (configuration not stated)
36

Please give the measured inhibition for this compound: CCS(=O)(=O)N(CC1CCN(C(=O)OC)CC1)C1Cc2cc(C#N)ccc2N(Cc2cncn2C)C1 (configuration not stated)
0

Recorded inhibition of Cn1cncc1CN1CC(N(CCCCN2C(=O)c3ccccc3C2=O)S(=O)(=O)c2ccccn2)Cc2cc(C#N)ccc21 (configuration not stated) , please.
63

Quick one: inhibition for COC(=O)N1CCC(CN(C2Cc3cc(C#N)ccc3N(Cc3cncn3C)C2)S(=O)(=O)c2cncn2C)CC1 (configuration not stated) ?
99

Could you tell me which inhibition is on file for CCN(CC)C(=O)c1ccc2c(c1)CC(N(CC(=O)NC(C)(C)C)S(=O)(=O)c1cn(C)cn1)CN2Cc1cncn1C (configuration not stated) ?
23

Reported inhibition for Cn1cnc(CN2CC(N(Cc3ccc(S(C)(=O)=O)cc3)S(=O)(=O)c3cn(C)cn3)Cc3cc(-c4ccccc4)ccc32)c1 (configuration not stated) : what is it?
84

What does the record list as inhibition for Cn1cncc1CN1CC(N(Cc2ccc(S(C)(=O)=O)cc2)S(=O)(=O)c2ccccc2Cl)Cc2cc(C#N)ccc21 (configuration not stated) ?
87

Tell me the measured inhibition of Cn1cnc(S(=O)(=O)N(CCc2ccccc2F)C2Cc3cc(C#N)ccc3N(Cc3cncn3C)C2)c1 (configuration not stated) , please.
98

Recorded inhibition of Cn1cnc(S(=O)(=O)N(CCN2C(=O)c3ccccc3C2=O)C2Cc3cc(C#N)ccc3N(Cc3cncn3C)C2)c1 (configuration not stated) , please.
97

Find the recorded inhibition belonging to Cn1cncc1CN1CC(N(CC(=O)NC(C)(C)C)S(=O)(=O)CCN)Cc2cc(C#N)ccc21 (configuration not stated) and report it.
10

Could you tell me which inhibition is on file for Cn1cncc1CN1CC(N(CC2CCN(C(=O)N3CCCCC3)CC2)S(=O)(=O)c2ccccn2)Cc2cc(C#N)ccc21 (configuration not stated) ?
14

Look up inhibition: COC(=O)N1CCC(CN(C2Cc3cc(C#N)ccc3N(Cc3cncn3C)C2)S(=O)(=O)N(C)C)CC1 (configuration not stated)
19

For CCOC(=O)N1CCC(CN(C2Cc3cc(C#N)ccc3N(Cc3cncn3C)C2)S(=O)(=O)c2cn(C)cn2)CC1 (configuration not stated) , what is its reported inhibition?
96

Could you tell me which inhibition is on file for Cn1cnc(S(=O)(=O)N(CCCN)C2Cc3cc(C#N)ccc3N(Cc3cncn3C)C2)c1 (configuration not stated) ?
5

Name the reported inhibition value associated with the compound COC(=O)CN(C1Cc2cc(-c3ccccc3)ccc2N(Cc2cn(C)cn2)C1)S(=O)(=O)c1cn(C)cn1 (configuration not stated)
87

If you can, please state the reported inhibition value of Cn1cncc1CN1CC(N(CC2CCN(C(=O)CNC(=O)OC(C)(C)C)CC2)S(=O)(=O)c2ccccn2)Cc2cc(C#N)ccc21 (configuration not stated) .
15

So what's the measured inhibition for this one? Cn1cncc1CN1CC(N(Cc2ccc(S(C)(=O)=O)cc2)S(=O)(=O)c2ccc3c(c2)OCCCO3)Cc2cc(C#N)ccc21 (configuration not stated)
78

Endpoint output: inhibition of Cn1cncc1CN1CC(N(CCC2(C)OCC(C)(C)CO2)S(=O)(=O)c2ccccn2)Cc2cc(C#N)ccc21 (configuration not stated) . Value?
66

What value of measured inhibition is listed for COC(=O)N1CCC(CN(C2Cc3cc(C#N)ccc3N(Cc3cncn3C)C2)S(=O)(=O)C2CC2)CC1 (configuration not stated) ?
3

Requested field: inhibition. Item: Cn1cncc1CN1CC(N(CC(=O)NC(C)(C)C)S(=O)(=O)c2c[nH]cn2)Cc2cc(C#N)ccc21 (configuration not stated)
14

Values were extracted from ChEMBL document CHEMBL1148785.
